Ref: paper PMC3989846

# Method notes: Liver tissue distribution pharmacokinetics after single intravenous or intragastric dose
# Format: in vivo, male ICR mice
# Settings: male, ICR, mouse; intravenous 5 mg/kg; liver

[
  {
    "Molecule": "COc1cc(C)c2c(Oc3cccc(C(F)(F)F)c3)c(OC)cc(NC(C)CCCN)c2n1 (stereo not shown)",
    "Unit string": "h",
    "MRT": 66.1
  }
]

* * *

# Method notes: Plasma pharmacokinetics after single intravenous or intragastric dose
# Assay type: in vivo, male ICR mice
# Settings: male, ICR, mouse, in vivo, po; intragastric 20 mg/kg; plasma

[
  {
    "Compound": "COc1cc(NC(C)CCCN)c2ncccc2c1 (stereo not shown)",
    "MRT / h": 2.28
  }
]
